// data source = PubChem BioAssay (NCATS)

- targetOrSystem: Cellular tumor antigen p53 (Homo sapiens)
- methodDescription: Primary qHTS for small molecule compounds that upregulate eGFP-tagged delta133p53alpha (in N-terminal) cells. (AID 2060322);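 also: cells pre-induced with doxycycline then dosed without doxycycline; 0% = DMSO vehicle and 100% = reference activator; nearly all actives have a fitted effect of over 75% in size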
- conditionDetails: NCI-H358 eGFP-delta133p53alpha fluorescence, 24 h; active compounds read high
Records with an inconclusive call do not appear.
Give measured activation for each item. Keep answers brief.
Give the value, in units of %, as a plain number.

Task item: Report activation for Cc1sc2c(c1C)C(c1ccc(Cl)cc1)=NC(CC(=O)Nc1ccc(O)cc1)c1nnc(C)n1-2 (stereo not given) please.
Reply: -21.2

Task item: Look at this compound and give its reported activation. CCCN(CCC)[C@@H]1CCc2ccc3[nH]c(C#N)cc3c2C1
Reply: 19.1

Task item: Which activation reading was recorded for the compound C=C(C)[C@@]12O[C@@H]1[C@@]1(C)C(=C[C@H]2O)CC[C@@H](O)[C@@H]1C ?
Reply: 8.4

Task item: Recorded activation of Oc1ccc2[nH]cc(CCCCN3CC=C(c4ccccc4)CC3)c2c1 , please.
Reply: 22

Task item: Can you look up the measured activation of C#CC1(O)CCC2C3CCC4=CC(=O)CCC4(C)C3CCC21C (stereo not given) for me?
Reply: 2.51

---

- methodDescription: BET inhibitor-based combinations targeting novel dependencies in MECOM-rearranged (r) AML: AML-191 cell line (AID 2202236; also: nearly all actives have a fitted effect of over 35% in size; also: potency is read from the fitted curve at half-maximal effect)
- conditionDetails: AML-191 viability, CellTiter-Glo luminescence, 48 h; series mostly up to 46 µM
Records with an inconclusive call do not appear. Active and inactive are the calls of the source. The call rests on the fitted dose curve; in most records, active means well fitted inhibition curve with a large enough effect; inconclusive means small, poorly fitted or top-dose-only effect; inactive means flat fitted curve, though single readings scatter.
measurementKind: Potency

C/C=C(\C)C(=O)N[C@@H](c1ccccc1)[C@@H](O)C(=O)O[C@H]1C[C@@]2(O)[C@@H](OC(=O)c3ccccc3)[C@@H]3[C@]4(OC(C)=O)CO[C@@H]4C[C@H](O)[C@@]3(C)C(=O)[C@H](OC(C)=O)C(=C1C)C2(C)C: 46.8 nM (active)
C=C[C@H]1CN2CCC1C[C@@H]2[C@@H](O)c1ccnc2ccccc12 (some centres undefined): inactive
O=C(N[C@H]1CN2CCC1CC2)c1ccc(Cl)cc1: inactive
Cc1c(N)nc([C@H](CC(N)=O)NC[C@@H](N)C(N)=O)nc1C(=O)N[C@H](C(=O)N[C@@H](C)[C@H](O)[C@@H](C)C(=O)N[C@@H](C(=O)NCCc1nc(-c2nc(C(=O)NCCC[S+](C)C)cs2)cs1)[C@@H](C)O)C(O[C@H]1O[C@H](CO)[C@H](O)[C@@H](O)[C@H]1O[C@H]1O[C@H](CO)[C@@H](O)[C@H](OC(N)=O)[C@@H]1O)c1cnc[nH]1 (some centres undefined): inactive

---

- methodDescription: qHTS for Inhibitors of the Aldehyde Dehydrogenase Family (ALDH1A2, ALDH1A3, ALDH2, ALDH3A1) (AID 2061307); also: nearly all actives have a fitted effect of over 50% in size
- conditionDetails: ALDH inhibition qHTS; series mostly up to 50.3 µM
Results filed as inconclusive are left out. Activity calls are given as the source filed them. Calls follow the shape of the dose curve; as a rule, active = well fitted inhibition curve with a large enough effect; inconclusive = small, poorly fitted or top-dose-only effect; inactive = no such curve, though single readings can be large or run the other way.
Outcome (select one): active, inactive

Task item: So what was the verdict on CN1CC[C@@]2(C)c3cc(OC(=O)Nc4ccccc4)ccc3N(C)[C@@H]12 in this test?
Reply: active

Task item: Recorded test outcome, item COC1=C[C@@H]2[C@@H]3Cc4ccc(OC)c(O)c4[C@]2(CCN3C)CC1=O
Reply: inactive

Task item: Recorded call for C[N+]1(C)CCOC(O)(c2ccc(-c3ccc(C4(O)C[N+](C)(C)CCO4)cc3)cc2)C1 (stereo not given) ?
Reply: inactive

Task item: Status in this test for CC1=C(C)C(=O)C(CC[C@](C)(O)CCC[C@H](C)CCC[C@H](C)CCCC(C)C)=C(C)C1=O ?
Reply: inactive

Task item: Per the records of this test, what outcome belongs to COc1ccc(-c2nc(CS(=O)CC(=O)N3CCC4(CC3)OCCO4)c(C)o2)cc1 (stereo not given) ?
Reply: inactive

Task item: Lab log entry: NC(=O)CI — outcome as called in the assay?
Reply: active

Task item: What classification did CC(=O)c1ccc(N=[N+]=[N-])cc1 end up with in this test?
Reply: active

Task item: Could you kindly confirm the outcome this assay logged for CCc1nn2c(=O)cc(C3=CCNCC3)nc2s1 ?
Reply: inactive

Task item: Could you check what this test reported for CCCn1c(C)c(C(=O)c2ccc3ccccc3c2)c2ccccc21 ?
Reply: inactive

Task item: What outcome does the record of this test show for CO[C@@H]1[C@H](O)[C@@H](O[C@@H]2C[C@H]3CC[C@@H]4C(CC[C@]5(C)[C@@H](C6=CC(=O)OC6)CC[C@]45O)[C@@]3(C)[C@H](O)C2)O[C@H](C)[C@@H]1O (stereo not given in full) ?
Reply: inactive

---

- methodDescription: BET inhibitor-based combinations targeting novel dependencies in MECOM-rearranged (r) AML: SET-2 cell line (AID 2202231); also: potency is read from the fitted curve at half-maximal effect; nearly all actives have a fitted effect of over 35% in size
- conditionDetails: SET-2 AML cells viability, CellTiter-Glo luminescence, 48 h
- Experimental: Ecotropic viral insertion site 1 (EVI1) is located on chromosome 3q26.2 as part of the MECOM (MDS and EVI1 complex) locus. […] A collection of 2480 mechanistically annotated dugs (MIPE v5.0) was used to screen four 3q26.2 rearranged AML cell lines and three non-3q26.2 rearranged AML cell lines. […] Cell viability was determined by luminescence based, Cell Titer Glo assay (Promega). […] Luminescence readings were taken using a Viewlux (PerkinElmer) with a 2 s exposure time per plate. […]
Inconclusive results are not listed. The source made the active and inactive calls. Calls come from the whole dose curve; as a rule, active = well fitted inhibition curve with a large enough effect; inconclusive = small, poorly fitted or top-dose-only effect; inactive = no such curve, though single readings can be large or run the other way.
Exercise: state measured Potency for each of the compounds provided.

Task item: What measured Potency goes with COc1cc([C@@H]2c3cc4c(cc3[C@@H](O)C3COC(=O)C32)OCO4)cc(OC)c1O (stereo partly drawn) ?
Reply: 468 nM (active)

Task item: Tell me the measured Potency of COc1ccc(C(=O)c2c(C)n(CCN3CCOCC3)c3cc(I)ccc23)cc1 , please.
Reply: 13200 nM (active)

Task item: Sample CCCCCCC(C)(C)c1cc(O)c2c(c1)OC(C)(C)C1CC=C(CO)C[C@H]21 (stereo partly drawn) — what was its Potency?
Reply: 23500 nM (active)

Task item: Item under review: C=C(C)[C@H]1Cc2c(ccc3c2O[C@@H]2COc4cc(OC)c(OC)cc4[C@@H]2C3=O)O1 . Reported Potency?
Reply: 1180 nM (active)

Task item: Could you share which Potency value was measured for C[C@@H]1C[C@@H]([C@H](O)CC2CC(=O)NC(=O)C2)C(=O)[C@@H](C)C1 ?
Reply: 296 nM (active)

Task item: May I ask what Potency has been recorded for Fc1ccc(C(OCCN2CCN(CCCc3ccccc3)CC2)c2ccc(F)cc2)cc1 ?
Reply: 23500 nM (active)

Task item: Given N[C@@H](Cc1ccc(N(CCCl)CCCl)cc1)C(=O)O , state its recorded Potency.
Reply: 4680 nM (active)

Task item: What value of Potency has been reported for the following compound? C[C@@H]1O[C@@H](O[C@H]2C[C@@H](O)[C@]3(CO)[C@H]4[C@H](O)C[C@]5(C)[C@@H](C6=CC(=O)OC6)CC[C@]5(O)[C@@H]4CC[C@]3(O)C2)[C@H](O)[C@H](O)[C@H]1O
Reply: 74.2 nM (active)

---

- methodDescription: BET inhibitor-based combinations targeting novel dependencies in MECOM-rearranged (r) AML: HNT-34 cell line (AID 2202234); also: nearly all actives have a fitted effect of over 35% in size
- conditionDetails: HNT-34 AML viability, CellTiter-Glo luminescence, 48 h; series mostly up to 46 µM
Records with an inconclusive call do not appear. Active and inactive are the calls of the source. Calls follow the shape of the dose curve; as a rule, active = well fitted inhibition curve with a large enough effect; inconclusive = small, poorly fitted or top-dose-only effect; inactive = no such curve, though single readings can be large or run the other way.
Please answer using one outcome listed in active, inactive

Task item: // return assay outcome for COC(=O)[C@@]12OC[C@]34[C@H]([C@@H](O)[C@@H]1O)[C@@]1(C)CC(=O)C(O)=C(C)[C@@H]1C[C@H]3OC(=O)[C@H](OC(=O)/C=C(\C)C(C)C)[C@@H]24
Reply: active

Task item: What did the test return for O=P1(NCCCl)OCCCN1CCCl (stereo not given) ?
Reply: inactive

Task item: Hello, I am checking results. What call was entered for CCCC[N+]1(C)[C@H]2CC(OC(=O)[C@H](CO)c3ccccc3)C[C@H]1[C@H]1O[C@H]12 (stereo not given in full) ?
Reply: inactive

Task item: Identify the outcome logged in this assay for the compound shown: CN[C@@H]1Cc2cccc3[nH]c(=O)n(c23)C1
Reply: inactive

Task item: Recorded test outcome, item CC1=C(O)C(=O)C=C2C1=CC=C1[C@@]2(C)CC[C@@]2(C)[C@@H]3C[C@](C)(C(=O)O)CC[C@]3(C)CC[C@]12C
Reply: active

Task item: Which outcome was entered for the compound CC1(C)CC(O)CC(C)(C)N1O in this test?
Reply: inactive

Task item: Answer briefly: the call reported for O=C1C=CC[C@@H]2[C@H]3CCCN4CCC[C@@H](CN12)[C@@H]34 in this assay.
Reply: inactive

Task item: Which outcome was entered for the compound COC12C(COC(N)=O)C3=C(C(=O)C(C)=C(N)C3=O)N1CC1C2N1C (stereo not given) in this test?
Reply: inactive

Task item: Could you check what this test reported for CN1C(=O)[C@@H](NC(=O)[C@H](CCC(F)(F)F)[C@H](CCC(F)(F)F)C(N)=O)N=C(c2ccccc2)c2ccccc21 ?
Reply: inactive

Task item: // return assay outcome for C#CC1(O)CCC2C3CCC4=CC(=O)CCC4(C)C3CCC21C (stereo not given)
Reply: inactive
